target: human ether-à-go-go-related gene (hERG) potassium channel (human, UniProt Q12809); experiment: primary screen, population patch clamp on CHO cells stably expressing hERG; higher = less effect of the substance;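 also: peak tail current of the secondary pulse compared with the same well before compound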
Sequence (Q12809 whole entry, looked up): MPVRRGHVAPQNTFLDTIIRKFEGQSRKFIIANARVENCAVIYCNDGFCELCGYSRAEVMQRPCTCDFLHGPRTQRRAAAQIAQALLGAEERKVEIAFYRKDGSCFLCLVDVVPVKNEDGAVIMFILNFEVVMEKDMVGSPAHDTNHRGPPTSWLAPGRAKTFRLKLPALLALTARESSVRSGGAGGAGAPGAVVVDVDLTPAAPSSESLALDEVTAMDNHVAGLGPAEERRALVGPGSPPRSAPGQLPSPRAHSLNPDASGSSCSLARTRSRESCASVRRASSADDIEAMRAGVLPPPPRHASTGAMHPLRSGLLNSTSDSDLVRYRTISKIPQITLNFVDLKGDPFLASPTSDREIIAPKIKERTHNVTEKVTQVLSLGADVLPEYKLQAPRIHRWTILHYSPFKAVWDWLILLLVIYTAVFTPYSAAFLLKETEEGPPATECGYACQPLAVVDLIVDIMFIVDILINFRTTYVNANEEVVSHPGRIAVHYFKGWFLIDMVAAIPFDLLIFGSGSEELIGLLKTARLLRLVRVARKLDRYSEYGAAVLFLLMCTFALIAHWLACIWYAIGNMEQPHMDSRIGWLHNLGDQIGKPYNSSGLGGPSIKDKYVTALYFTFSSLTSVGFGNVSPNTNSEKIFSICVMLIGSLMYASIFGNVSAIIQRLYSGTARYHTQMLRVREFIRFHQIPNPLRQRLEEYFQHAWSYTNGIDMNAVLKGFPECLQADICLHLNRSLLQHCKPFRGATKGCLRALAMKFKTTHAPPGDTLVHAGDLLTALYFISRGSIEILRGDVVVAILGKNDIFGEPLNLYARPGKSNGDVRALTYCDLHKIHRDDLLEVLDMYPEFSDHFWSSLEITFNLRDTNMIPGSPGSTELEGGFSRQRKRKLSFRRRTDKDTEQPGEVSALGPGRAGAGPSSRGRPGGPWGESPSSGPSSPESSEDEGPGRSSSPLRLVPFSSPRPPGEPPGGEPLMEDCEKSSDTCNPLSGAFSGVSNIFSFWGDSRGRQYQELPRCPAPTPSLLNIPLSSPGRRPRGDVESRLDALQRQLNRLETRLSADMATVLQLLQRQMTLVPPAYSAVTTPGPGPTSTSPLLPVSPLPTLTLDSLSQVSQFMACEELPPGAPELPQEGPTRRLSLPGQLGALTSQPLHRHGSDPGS
Hit rate of the full screen: of about 310,000 compounds, about 14,000 (4.5%) showed an effect of 50% or more. Effects have a minus sign here. Shown is part of a subset that was picked to be rich in strong results.
Please go through the items and note down their hERG current change (%, negative = inhibition) at 10uM.
Give the value, in units of %, as a plain number.

So what's the measured hERG current change (%, negative = inhibition) at 10uM for this one? Cc1ccc(CN2CCN(C(=O)c3ccco3)CC2)cc1 -13.5

Same read-out for CCc1ccccc1NC(=O)C1CCN(C(=O)c2cccs2)CC1 ? -24.3

Same read-out for N#Cc1c(NC(=O)CCN2C(=O)c3ccccc3C2=O)oc(-c2ccccc2)c1-c1ccccc1 ? -11.7

Same read-out for CCCn1nnc(NC(=O)c2cccc(OCC(C)C)c2)n1 ? -3.93

Same read-out for COc1ccccc1C(=O)Nc1ccc2c(c1)CCCN2C(=O)c1ccccc1 ? -39.8

Same read-out for O=C(CCC(=O)N1CCSc2ccccc21)NC1CCCCC1 ? -2.55

Same read-out for Cl.N=c1n(CCO)c2ccccc2n1Cc1ccccc1 ? -25.1

Same read-out for C=CCC(=O)N(CC)CC1CCCN(CCc2cccc(F)c2)C1 (stereo not drawn) ? -54.2

Same read-out for Cc1ccc2cccc(S(=O)(=O)Nc3c(C)n(C)n(-c4ccccc4)c3=O)c2n1 ? -0.878

Same read-out for COc1ccccc1/C=N/NC(=O)COCC(=O)N/N=C/c1ccccc1OC ? 3.56

Same read-out for CC(C)(C)P(=O)(c1ccncc1)N1CCCC1 (stereo not drawn) ? 2.14

Same read-out for CCOc1ccc(C2Oc3nc(SC)nnc3-c3ccccc3N2C(C)=O)cc1OC (stereo not drawn) ? 9.64

Same read-out for O=C(c1ccccc1O)N1CCOCC1 ? 3.51

Same read-out for N=c1n(Cc2ccccc2)c2ccccc2n1Cc1ccccc1 ? -62.1

Same read-out for Cc1cc(C)c2c(c1)c(C)cc1nnc(SCC(=O)NCc3ccco3)n12 ? -8.05

Same read-out for O=c1n(Cc2ccccc2F)c2ccccc2n1Cc1ccccc1F ? 19.4

Same read-out for O=C(CC(=O)Nc1ccc(Cl)cc1)N/N=C\c1cccc(F)c1 ? 16.6

Same read-out for CC(NC(=O)C(=O)N1CCOCC1)C(c1cccs1)N1CCN(c2ccccc2)CC1 (stereo not drawn) ? 8.31

Same read-out for O=C(CN1CCN(c2ccccc2)CC1)N/N=C/c1cccc(F)c1 ? 4.27

Same read-out for O=C(Cc1cccs1)NCCN1CCOCC1 ? 3.99

Same read-out for O=C(NCc1cccnc1)c1ccc(Br)s1 ? -16.9

Same read-out for COc1ccc(OC)c(CNCc2ccc3c(c2)OCO3)c1.O=C(O)C(=O)O ? -4.43

Same read-out for CCOc1ccc(N2C(=O)/C(=C/c3ccco3)N(C)C2=S)cc1 ? -4.46

Same read-out for Cc1ccc(OS(=O)(=O)c2ccccc2)c(/C=N/N=C2\NC(=O)C(C)S2)c1 (stereo not drawn) ? -0.524

Same read-out for Cc1ccc(S(=O)(=O)N2CCN(S(=O)(=O)N3CCCCC3)CC2)c(C)c1 ? -6.97

Same read-out for CN(C)C(=O)CSc1nnc([C@H](Cc2ccccc2)NC(=O)OC(C)(C)C)o1 ? 5.98

Same read-out for O=C(CN1CCOCC1)NCc1ccccc1 ? 17.4

Same read-out for O=C(c1ccco1)N1CCN=C1SCc1cccc(F)c1 ? -6.98

Same read-out for O=C(CO)N/N=C/c1ccccc1F ? 19.1

Same read-out for Br.CCn1c(=N)n(Cc2ccccc2F)c2ccccc21 ? -37.5

Same read-out for O=C(Cn1cc(C(=O)C2CC2)c2ccccc21)NCc1ccccc1 ? 3.43

Same read-out for O=C(c1ccc(Cl)cc1)N1CCCOC1 ? 15.2

Same read-out for COc1ccc(NC(=O)NNC(=O)c2ccccc2-n2cccc2)cc1OC ? 25.4

Same read-out for COc1ccc(NC(=O)c2ccc(COCC(F)(F)C(F)F)cc2)cc1OC ? 7.39

Same read-out for Cc1ccc(CN2CCN(CC(=O)N/N=C/c3c[nH]c4ccccc34)CC2)cc1 ? -36.3

Same read-out for O=C(CN1CCCCCCC1)N/N=C/c1ccccc1F ? -35.6

Same read-out for CCOc1ccc(C2CC(c3cccc(OC)c3OC)n3nnnc3N2)cc1Cl (stereo not drawn) ? -19.2

Same read-out for COc1cc(OC)c2ccc(=O)oc2c1C(CC(=O)N1CCCC1)c1ccc(N(C)C)cc1 (stereo not drawn) ? 10.2

Same read-out for CC(=O)Nc1cccc(NC(=O)CSc2nccn2Cc2ccc(F)cc2)c1 ? 0.742

Same read-out for Cc1cc(C(=O)N(C)CC2CCCN(CCc3ccc(F)cc3)C2)c(C)o1 (stereo not drawn) ? -75.7

Same read-out for C/C(=N\N1CCN(Cc2ccccc2)CC1)c1ccco1 ? -1.45

Same read-out for CCOCCn1c(SCc2ccc(F)cc2)nc2c1c(=O)[nH]c(=O)n2C ? -19.5

* * *

Please go through the items and note down their hERG current change (%, negative = inhibition) at 10uM.
target: human ether-à-go-go-related gene (hERG) potassium channel (human, UniProt Q12809); experiment: primary screen, population patch clamp on CHO cells stably expressing hERG; higher = less effect of the substance;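 also: peak tail current of the secondary pulse compared with the same well before compound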
About 14,000 (4.5%) of roughly 310,000 compounds showed an effect of 50% or more. Effects have a minus sign here. The sample as a whole holds a higher share of strong results than the screen did.
Give the value, in units of %, as a plain number.

So what's the measured hERG current change (%, negative = inhibition) at 10uM for this one? Cc1ccc(CN2CCN(Cc3cccn3-c3nccs3)CC2CCO)cc1 (centres unmarked) -77.3

Same read-out for CC1CCCCN1C(=O)CSc1nnc(-c2ccco2)n1C (centres unmarked) ? 4.88

Same read-out for O=C(CCCN1C(=O)c2ccccc2C1=O)Nc1ccc(S(=O)(=O)N2CCCCC2)cc1 ? -28.8

Same read-out for S=c1[nH]nc(COc2ccccc2)n1/N=C/C=C/c1ccco1 ? 3.42

Same read-out for COCCN(C(=O)CCC(=O)Nc1nccs1)C(C(=O)NC(C)(C)C)c1ccc(C)cc1 (centres unmarked) ? 5.03

* * *

target: human ether-à-go-go-related gene (hERG) potassium channel (human); assay: primary screen, population patch clamp on CHO cells stably expressing hERG; higher = less effect of the substance;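 also: peak tail current of the secondary pulse compared with the same well before compound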
Among all 310,000 compounds or so, about 14,000 (4.5%) showed an effect of 50% or more. Effects have a minus sign here. What follows is part of a selection rich in strong results, with near analogues and random picks from the rest.
Please go through the items and note down their hERG current change (%, negative = inhibition) at 10uM.
Give the value, in units of %, as a plain number.

So what's the measured hERG current change (%, negative = inhibition) at 10uM for this one? Cc1onc(-c2ccccc2)c1C(=O)N1CCN(S(=O)(=O)c2ccccc2C(F)(F)F)CC1 22.6

Same read-out for Cc1cc(C(=O)NC2CCN(Cc3ccccc3)CC2)n[nH]1 ? -19.8

Same read-out for Nc1nn(S(=O)(=O)c2ccccc2)cc1-c1ccc([N+](=O)[O-])cc1 ? -9.96

Same read-out for COCCNC(=S)N(CCc1c(C)[nH]c2ccc(F)cc12)Cc1cccnc1 ? -21.5

Same read-out for CC1CCc2sc(C(=O)NN)cc2C1 (centres unmarked) ? 21.1

Same read-out for O=C(NC1CCN(Cc2ccccc2)CC1)c1cccc(Br)c1 ? -63.8

Same read-out for CCCCN1CCC(COC(=O)c2cc(Cl)c(N)c3c2OCCO3)CC1.Cl ? -59.4

Same read-out for NC(=O)c1ccc(Oc2ccc(C(N)=O)cc2)cc1 ? 17.5

Same read-out for O=C(c1cnc2ccccc2n1)N1CCN(c2ccc(C(F)(F)F)cn2)CC1 ? -17.1

Same read-out for CC1CCc2sc(C(=O)NC3CCCCC3)cc2C1 (centres unmarked) ? -5.4

Same read-out for COc1ccc(C(CNC(=O)c2[nH]c(C)c(C(C)=O)c2C)N2CCOCC2)cc1 (centres unmarked) ? -4.61

Same read-out for O=C(NC1CCN(Cc2ccccc2)CC1)c1ccc(Oc2cc(Cl)cc(Cl)c2)o1 ? -6.95

Same read-out for O=C1NC(=O)N(Cc2ccccc2)C1=O ? 26.4

Same read-out for COc1cc(Cl)c(C)cc1NC(=O)CSc1cc(Cl)ccc1Cl ? 7.31

Same read-out for O=C(NC1CCN(Cc2ccccc2)CC1)c1ccc2c(c1)OCCCO2 ? -37.1

Same read-out for O=C(NC1CC1)c1cccc(Br)c1 ? 0.381

Same read-out for CCOc1ccc(-n2c(SCC)nc3c(c2=O)SCC3)cc1 ? 15

Same read-out for Cl.O=C(OCCN1CCOCC1)c1ccc(Cl)cc1Cl ? -0.913

Same read-out for COc1ccc(-n2c(O)c(/C=N/n3cnnc3)c3ccccc3c2=O)cc1 ? -1.22

Same read-out for NC[C@H]1O[C@H](O[C@H]2[C@H](O)[C@@H](O[C@H]3O[C@H](CO)[C@@H](O)[C@H](N)[C@H]3O)[C@H](N)C[C@@H]2N)[C@H](N)C[C@@H]1O.O=S(=O)(O)O ? 4.47

Hello, the source for this data is paper PMC4336329, in case you need it.
